// data source = PubChem BioAssay (NCI)

System: MALME-3M melanoma
PROTOCOL_TEXT: NCI tumour cell line growth inhibition, 48 h
METRIC_NAME: TGI

molecule=O=c1[nH]nc(-c2ccccc2)n1/N=C/c1ccc([N+](=O)[O-])cc1 target="MALME-3M melanoma" metric_name=TGI endpoint_value="> 100 µM"
molecule=COc1nc(N=P(c2ccccc2)(c2ccccc2)c2ccccc2)cc(=O)[nH]1 target="MALME-3M melanoma" metric_name=TGI endpoint_value="> 100 µM"
molecule=CCCn1c(=S)sc2c1nc(C)n1c(Nc3ccccc3)nnc21 target="MALME-3M melanoma" metric_name=TGI endpoint_value="> 100 µM"
molecule=CCOC(=O)NC(=O)c1cn(CCNCCO)c(=O)[nH]c1=O target="MALME-3M melanoma" metric_name=TGI endpoint_value="> 100 µM"
molecule=CCCCCCCC[C@@H](O)CC(=O)N[C@@H](CC(N)=O)C(=O)N[C@@H](CCC(N)=O)C(=O)N[C@@H](CC(=O)c1cc(C)cc(O)c1C(=O)c1c(O)cccc1O)CC(C)C target="MALME-3M melanoma" metric_name=TGI endpoint_value="> 100 µM"
molecule=CCOC(=O)c1cc2c([nH]1)c(O)cc1c2ccn1Cc1ccccc1 target="MALME-3M melanoma" metric_name=TGI endpoint_value="36.8 µM"
molecule=O=C(CCc1nnc2sc(-c3ccc(Cl)cc3Cl)nn12)c1nc2ccccc2[nH]1 target="MALME-3M melanoma" metric_name=TGI endpoint_value="3.52 µM"
molecule=Nc1nc(N(Cc2ccccc2)c2ccccc2)c2cn[nH]c2n1 target="MALME-3M melanoma" metric_name=TGI endpoint_value="> 100 µM"
molecule=O=C(NC12CC3CC(CC(F)(C3)C1)C2)c1ccccc1 target="MALME-3M melanoma" metric_name=TGI endpoint_value="> 100 µM"
molecule=N#CC(C#N)=C1Nc2ccccc2S1 target="MALME-3M melanoma" metric_name=TGI endpoint_value="34.5 µM"
molecule=CN(C)/N=C(/CC(O)(C(F)(F)F)C(F)(F)F)c1ccc([N+](=O)[O-])cc1 target="MALME-3M melanoma" metric_name=TGI endpoint_value="> 100 µM"
molecule="COC1(OC)CC2OC1C1N=NN(C(=O)OC(C)(C)C)C21 (configuration not stated)" target="MALME-3M melanoma" metric_name=TGI endpoint_value="> 100 µM"
molecule=COc1ccc(-c2onc(N)c2-c2cc(OC)c3c(c2)OCO3)cc1 target="MALME-3M melanoma" metric_name=TGI endpoint_value="> 100 µM"
molecule=c1ccc(-c2nc3ccccc3n3c(CN4CCCCC4)nnc23)cc1 target="MALME-3M melanoma" metric_name=TGI endpoint_value="> 100 µM"
molecule="Cc1c(C)c(C)n(C2OC(CO)C(O)C(O)C2O)c(=S)c1C#N (configuration not stated)" target="MALME-3M melanoma" metric_name=TGI endpoint_value="> 100 µM"
molecule=O=C(O)CCCn1nnc2c(=O)[nH][nH]c(=O)c21 target="MALME-3M melanoma" metric_name=TGI endpoint_value="> 100 µM"
molecule=O=C(O)COCC(=O)N(CCOCCN(Cc1ccccc1)C(=O)COCC(=O)O)Cc1ccccc1 target="MALME-3M melanoma" metric_name=TGI endpoint_value="> 100 µM"
molecule=Cc1cc2cc3c(cc2c(-c2ccc([N+](=O)[O-])cc2)n1)OCO3 target="MALME-3M melanoma" metric_name=TGI endpoint_value="> 100 µM"
molecule=O/N=C/c1ncccc1C1OCCO1 target="MALME-3M melanoma" metric_name=TGI endpoint_value="> 100 µM"
molecule=CC(C)NC(NC(C)C)=C(S(=O)(=O)C(F)(F)C(F)(F)C(F)(F)C(F)(F)F)S(=O)(=O)C(F)(F)C(F)(F)C(F)(F)C(F)(F)F target="MALME-3M melanoma" metric_name=TGI endpoint_value="> 100 µM"
molecule=OCCCNc1nc(=S)[nH]c2[nH]ncc12 target="MALME-3M melanoma" metric_name=TGI endpoint_value="> 100 µM"
molecule="CC1CN1C(=O)NCCCCCCNC(=O)N1CC1C (configuration not stated)" target="MALME-3M melanoma" metric_name=TGI endpoint_value="> 100 µM"
molecule=CCc1ccccc1NC(=O)C1=C(C)NC(C)=C(C(=O)Nc2ccccc2CC)C1c1ccc2c(c1)OCO2 target="MALME-3M melanoma" metric_name=TGI endpoint_value="99 µM"
molecule="CCCC(=O)OCC1OC(n2cnc3c(=S)nc[nH]c32)C(OC(=O)CCC)C1OC(=O)CCC (configuration not stated)" target="MALME-3M melanoma" metric_name=TGI endpoint_value="> 100 µM"
molecule="Cc1ccc([N+](=O)[O-])cc1S(=O)(=O)Nc1ccc(C2=NN(c3ccc([N+](=O)[O-])cc3[N+](=O)[O-])C(c3cccs3)C2)cc1 (configuration not stated)" target="MALME-3M melanoma" metric_name=TGI endpoint_value="94.7 µM"
molecule="NC1=NC(c2ccccc2)CC(c2cc(Cl)ccc2O)=N1 (configuration not stated)" target="MALME-3M melanoma" metric_name=TGI endpoint_value="38 µM"
molecule=O=C(O)C(=Cc1ccc(-c2ccccc2)cc1)C(=O)O target="MALME-3M melanoma" metric_name=TGI endpoint_value="39.7 µM"
